Reference for the values: patent US7501430B2

# assay_system: mutant B-RAF (Homo sapiens, UniProt P15056, V600E)
# Construct: purchased Upstate (Charlottesville, Va.)
# Sequence (P15056 whole entry V600E): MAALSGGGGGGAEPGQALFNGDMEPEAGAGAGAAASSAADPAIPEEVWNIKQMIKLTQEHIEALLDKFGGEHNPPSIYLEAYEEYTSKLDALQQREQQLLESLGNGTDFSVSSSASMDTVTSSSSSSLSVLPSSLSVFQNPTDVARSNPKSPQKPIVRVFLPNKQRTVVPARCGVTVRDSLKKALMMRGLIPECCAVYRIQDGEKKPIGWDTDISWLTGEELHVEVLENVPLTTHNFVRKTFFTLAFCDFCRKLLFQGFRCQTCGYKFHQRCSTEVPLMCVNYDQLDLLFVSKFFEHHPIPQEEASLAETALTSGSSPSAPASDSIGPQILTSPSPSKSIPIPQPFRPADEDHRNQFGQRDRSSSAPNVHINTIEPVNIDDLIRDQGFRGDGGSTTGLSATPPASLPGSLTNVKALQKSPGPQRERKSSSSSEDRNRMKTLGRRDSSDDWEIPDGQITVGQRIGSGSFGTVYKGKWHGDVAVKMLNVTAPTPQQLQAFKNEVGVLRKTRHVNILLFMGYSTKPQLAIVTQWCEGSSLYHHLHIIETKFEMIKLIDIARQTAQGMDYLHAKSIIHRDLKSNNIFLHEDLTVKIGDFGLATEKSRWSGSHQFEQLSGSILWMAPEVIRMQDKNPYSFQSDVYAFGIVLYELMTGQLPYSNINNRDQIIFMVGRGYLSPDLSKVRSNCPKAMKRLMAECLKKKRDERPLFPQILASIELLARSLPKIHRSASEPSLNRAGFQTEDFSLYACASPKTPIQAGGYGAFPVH
# measurement_description: RAF biochemical assay (MEK-1 phosphorylation, anti-phospho MEK1/2 detection)
# run_conditions: read-out: Mutant B-RAF IC50
quantity_kind: pIC50
The quantity pIC50 is defined as the negative base-10 logarithm of the molar concentration.

Use the examples below as a reference point.
- CCNC(=O)N1CCC(Nc2nccc(-c3c(-c4cccc(OC)c4)nc4sccn34)n2)CC1 [Example 213]: 5.69
- CN(C)c1ccc(C(=O)N2CCC[C@@H](Nc3nccc(-c4c(-c5ccc(F)cc5)nc5occn45)n3)C2)cc1 [Example 39]: 6.32
- COC(=O)c1ccc(S(=O)(=O)N2CCC[C@@H](Nc3nccc(-c4c(-c5cccc(O)c5)nc5sccn45)n3)C2)cc1 [Example 314]: 7.52
- NCC(=O)N1CCC(Nc2nccc(-c3c(-c4ccc(F)cc4)nc4occn34)n2)CC1 [Example 190]: 5.94
- N[C@@H](CCC(=O)O)C(=O)N1CCC(Nc2nccc(-c3c(-c4ccc(F)cc4)nc4occn34)n2)CC1 [Example 196]: 5.48
- O=S(=O)(c1ccc(Cl)cc1)N1CC[C@@H](Nc2nccc(-c3c(-c4cccc(O)c4)nc4sccn34)n2)C1 [Example 283]: 5.80
- CN(C)c1ccc(NC(=O)N2CCC(Nc3nccc(-c4c(-c5ccc(F)cc5)nc5occn45)n3)CC2)cc1 [Example 175]: 7.18
- Nc1cccc(-c2nc3sccn3c2-c2ccnc(N[C@@H]3CCCN(S(=O)(=O)c4ccc(Cl)cc4)C3)n2)c1 [Example 122]: 6.37
- COc1cccc(-c2nc3sccn3c2-c2ccnc(N[C@@H]3CCCN(C(=O)NC4CCCCC4)C3)n2)c1 [Example 328]: 5.40
- Oc1cccc(-c2nc3sccn3c2-c2ccnc(N[C@@H]3CCCN(CC(O)COc4ccc(Cl)cc4)C3)n2)c1 (some centres unmarked) [Example 331]: 5.98

Incoming: Which value of pIC50 has been reported for O=S(=O)(c1ccc(F)cc1)N1CCCC(Nc2nccc(-c3c(-c4ccc(F)cc4)nc4sccn34)n2)C1 (centres unmarked) [Example 2] in the records?
Outgoing: 6.34

Incoming: Which value of pIC50 has been reported for COc1cccc(-c2nc3occn3c2-c2ccnc(NC3CCN(S(=O)(=O)C4CC4)CC3)n2)c1 [Example 338] in the records?
Outgoing: 5.16

Incoming: Which value of pIC50 has been reported for CS(=O)(=O)N1CCC(Nc2nccc(-c3c(-c4cccc(O)c4)nc4sccn34)n2)CC1 [Example 332] in the records?
Outgoing: 8.00

Incoming: Which value of pIC50 has been reported for COc1cccc(-c2nc3sccn3c2-c2ccnc(NC3CCN(S(=O)(=O)c4ccc(CCC(=O)O)cc4)CC3)n2)c1 [Example 270] in the records?
Outgoing: 6.50

Incoming: Which value of pIC50 has been reported for O=C(NCc1ccccc1)N1CCC(Nc2nccc(-c3c(-c4ccc(F)cc4)nc4occn34)n2)CC1 [Example 170] in the records?
Outgoing: 6.72

Incoming: Which value of pIC50 has been reported for CCNC(=O)N1CCC(Nc2nccc(-c3c(-c4cccc(O)c4)nc4sccn34)n2)CC1 [Example 268] in the records?
Outgoing: 8.05

Incoming: Which value of pIC50 has been reported for O=Cc1ccc(-c2nc3sccn3c2-c2ccnc(N[C@@H]3CCCN(S(=O)(=O)c4ccc(Cl)cc4)C3)n2)cc1 [Example 385] in the records?
Outgoing: 6.06

Incoming: Which value of pIC50 has been reported for O=C(Nc1ccc(F)c(F)c1)N1CCC(Nc2nccc(-c3c(-c4ccc(F)cc4)nc4occn34)n2)CC1 [Example 193] in the records?
Outgoing: 5.91

Incoming: Which value of pIC50 has been reported for COc1cccc(-c2nc3occn3c2-c2ccnc(NC3CCNCC3)n2)c1 [Example 337] in the records?
Outgoing: 5.49

* * *

# assay_system: mutant B-RAF (Homo sapiens, UniProt P15056, V600E)
# Construct: purchased Upstate (Charlottesville, Va.)
# measurement_description: RAF biochemical assay (MEK-1 phosphorylation, anti-phospho MEK1/2 detection)
Some compounds, each annotated with its measured IC50.
Respond with the bare value in µM.

Use the examples below as a reference point.
• O=C(CCc1ccccc1)N1CCC[C@@H](Nc2nccc(-c3c(-c4ccc(F)cc4)nc4occn34)n2)C1 = 2.9
• Cc1ccc(S(=O)(=O)N2CCC[C@@H](Nc3nccc(-c4c(-c5ccc(F)cc5)nc5occn45)n3)C2)cc1 = 0.59
• CCC(=O)N1CCC[C@@H](Nc2nccc(-c3c(-c4ccc(F)cc4)nc4occn34)n2)C1 = 1.58

Incoming: Which value of IC50 has been reported for COCC(=O)N1CCC[C@@H](Nc2nccc(-c3c(-c4ccc(F)cc4)nc4occn34)n2)C1 in the records?
Outgoing: 0.711

* * *

# assay_system: mutant B-RAF (Homo sapiens, UniProt P15056, V600E)
# Construct: purchased Upstate (Charlottesville, Va.)
# measurement_description: RAF biochemical assay (MEK-1 phosphorylation, anti-phospho MEK1/2 detection)
# run_conditions: read-out: Mutant B-RAF IC50
pIC50: −log10 of the molar value.
Please mark True if the recorded pIC50 is equal to or greater than 6, and False if it falls below.

* N#Cc1ccc(S(=O)(=O)N2CCC[C@@H](Nc3nccc(-c4c(-c5cccc(O)c5)nc5sccn45)n3)C2)cc1 [Example 111] | True
* Cc1cn2c(-c3ccnc(NC4CCN(C(=O)NCc5ccccc5)CC4)n3)c(-c3ccc(F)cc3)nc2s1 [Example 241] | False
* O=S(=O)(c1ccc(Cl)cc1)N1CCC[C@@H](Nc2nccc(-c3c(-c4ccc(F)c(O)c4)nc4sccn34)n2)C1 [Example 353] | True
* CCNC(=O)N1CCC(Nc2nccc(-c3c(-c4ccc(F)cc4)nc4sccn34)n2)CC1 [Example 294] | True
* O=S(=O)(c1ccsc1)N1CCC[C@@H](Nc2nccc(-c3c(-c4cccc(O)c4)nc4sccn34)n2)C1 [Example 367] | True

Below: the item to evaluate.
Incoming: Dear colleague, could you confirm whether NC(=O)c1ccc(-c2nc3sccn3c2-c2ccnc(N[C@@H]3CCCN(S(=O)(=O)c4ccc(Cl)cc4)C3)n2)cc1 [Example 379] has pIC50 at or above 6?
Outgoing: False

* * *

Some compounds, each annotated with its measured IC50.
# assay_system: mutant B-RAF (Homo sapiens, UniProt P15056, V600E)
# Construct: purchased Upstate (Charlottesville, Va.)
# measurement_description: RAF biochemical assay (MEK-1 phosphorylation, anti-phospho MEK1/2 detection)
# run_conditions: read-out: Mutant B-RAF IC50
Respond with the bare value in nM.

Use the examples below as a reference point.
- COc1cccc(-c2nc3sccn3c2-c2ccnc(N[C@@H]3CCCN(C(=O)Nc4ccc(F)cc4)C3)n2)c1: 4000
- Cc1nc(-c2cccc(-c3nc4sccn4c3-c3ccnc(N[C@@H]4CCCNC4)n3)c2)no1: 30
- O=S(=O)(c1ccc(Cl)cc1)N1CCC(Nc2nccc(-c3c(-c4cccc(O)c4)nc4sccn34)n2)CC1: 31
- COc1ccccc1-c1nc2sccn2c1-c1ccnc(N[C@@H]2CCCN(S(=O)(=O)c3ccc(Cl)cc3)C2)n1: 250
- O=S(=O)(c1ccccc1)N1CCC[C@@H](Nc2nccc(-c3c(-c4cccc(O)c4)nc4sccn34)n2)C1: 3
- COc1ccc(S(=O)(=O)N2CCC[C@@H](Nc3nccc(-c4c(-c5cccc(OC)c5)nc5sccn45)n3)C2)cc1: 188

Attention now shifts to the item below.
Incoming: Which value of IC50 has been reported for O=S(=O)(c1ccc(F)cc1)N1CCC(Nc2nccc(-c3c(-c4ccc(F)cc4)nc4sccn34)n2)CC1 in the records?
Outgoing: 78

* * *

# assay_system: mutant B-RAF (Homo sapiens, UniProt P15056, V600E)
# Construct: purchased Upstate (Charlottesville, Va.)
# measurement_description: RAF biochemical assay (MEK-1 phosphorylation, anti-phospho MEK1/2 detection)
# run_conditions: @ 10 uM; read-out: Mutant B-RAF % inhibition
Please mark criterion met if the recorded inhibition at 10 µM is equal to or greater than 40%, and criterion not met if it falls below.

# example entries with known answers
* Fc1ccc(-c2nc3sccn3c2-c2ccnc(N[C@H]3CCNC3)n2)cc1 [Example 275] | criterion not met
* CC(=O)N1CCC(Nc2nccc(-c3c(-c4ccc(F)cc4Cl)nc4occn34)n2)CC1 [Example 305] | criterion met
* O=S(=O)(c1ccc(Cl)cc1)N1CCC(Nc2nccc(-c3c(-c4ccc(O)cc4)nc4sccn34)n2)CC1 [Example 264] | criterion not met
* O=S(=O)(c1ccc(F)cc1)N1CCC(Nc2nccc(-c3c(-c4ccc(F)c(F)c4)nc4sccn34)n2)CC1 [Example 217] | criterion met

Incoming: Dear colleague, could you confirm whether NCC(=O)N1CCC[C@@H](Nc2nccc(-c3c(-c4ccc(F)cc4)nc4occn34)n2)C1 [Example 35] has inhibition at 10 µM at or above 40%?
Outgoing: criterion not met

Incoming: Dear colleague, could you confirm whether Cc1cc(NC(=O)N2CCC(Nc3nccc(-c4c(-c5ccc(F)cc5)nc5occn45)n3)CC2)c(C(F)(F)F)o1 [Example 186] has inhibition at 10 µM at or above 40%?
Outgoing: criterion not met

Incoming: Dear colleague, could you confirm whether CC(=O)Nc1nc(C)c(S(=O)(=O)N2CCC[C@@H](Nc3nccc(-c4c(-c5ccc(F)cc5)nc5occn45)n3)C2)s1 [Example 64] has inhibition at 10 µM at or above 40%?
Outgoing: criterion met

Incoming: Dear colleague, could you confirm whether Fc1ccc(-c2nc3occn3c2-c2ccnc(NC3CCNCC3)n2)c(F)c1 [Example 300] has inhibition at 10 µM at or above 40%?
Outgoing: criterion met

Incoming: Dear colleague, could you confirm whether C[C@H](NC(=O)N1CCC(Nc2nccc(-c3c(-c4ccc(F)cc4)nc4occn34)n2)CC1)c1ccccc1 [Example 195] has inhibition at 10 µM at or above 40%?
Outgoing: criterion met

Incoming: Dear colleague, could you confirm whether O=S(=O)(c1c(F)cccc1F)N1CCC(Nc2nccc(-c3c(-c4ccc(F)cc4)nc4occn34)n2)CC1 [Example 236] has inhibition at 10 µM at or above 40%?
Outgoing: criterion not met

Incoming: Dear colleague, could you confirm whether Cc1cn2c(-c3ccnc(NC4CCN(C(=O)Nc5ccc(N(C)C)cc5)CC4)n3)c(-c3ccc(F)cc3)nc2s1 [Example 225] has inhibition at 10 µM at or above 40%?
Outgoing: criterion not met

Incoming: Dear colleague, could you confirm whether CN(C)c1ccc(C(=O)N2CCC(Nc3nccc(-c4c(-c5ccc(F)cc5)nc5occn45)n3)CC2)cc1 [Example 222] has inhibition at 10 µM at or above 40%?
Outgoing: criterion met

Incoming: Dear colleague, could you confirm whether Cc1cn2c(-c3ccnc(NC4CCNCC4)n3)c(-c3ccc(F)cc3)nc2s1 [Example 224] has inhibition at 10 µM at or above 40%?
Outgoing: criterion met

Incoming: Dear colleague, could you confirm whether O=S(=O)(c1cc(C(F)(F)F)cc(C(F)(F)F)c1)N1CCC[C@@H](Nc2nccc(-c3c(-c4ccc(F)cc4)nc4occn34)n2)C1 [Example 56] has inhibition at 10 µM at or above 40%?
Outgoing: criterion met

Incoming: Dear colleague, could you confirm whether O=C(c1ccco1)N1CCC(Nc2nccc(-c3c(-c4ccc(F)cc4)nc4occn34)n2)CC1 [Example 166] has inhibition at 10 µM at or above 40%?
Outgoing: criterion met

Incoming: Dear colleague, could you confirm whether O=C(NCc1ccc(F)cc1)N1CCC(Nc2nccc(-c3c(-c4ccc(F)cc4)nc4occn34)n2)CC1 [Example 194] has inhibition at 10 µM at or above 40%?
Outgoing: criterion met

Incoming: Dear colleague, could you confirm whether O=C(Nc1ccccc1F)N1CCC(Nc2nccc(-c3c(-c4ccc(F)cc4)nc4occn34)n2)CC1 [Example 187] has inhibition at 10 µM at or above 40%?
Outgoing: criterion not met

Incoming: Dear colleague, could you confirm whether Cc1nc(C)c(S(=O)(=O)N2CCC[C@@H](Nc3nccc(-c4c(-c5ccc(F)cc5)nc5occn45)n3)C2)s1 [Example 65] has inhibition at 10 µM at or above 40%?
Outgoing: criterion met

Incoming: Dear colleague, could you confirm whether O=C(NCc1ccco1)N1CCC(Nc2nccc(-c3c(-c4ccc(F)c(F)c4)nc4sccn34)n2)CC1 [Example 243] has inhibition at 10 µM at or above 40%?
Outgoing: criterion met

Incoming: Dear colleague, could you confirm whether COc1ccc(-c2nc3sccn3c2-c2ccnc(N[C@@H]3CCCNC3)n2)cc1 [Example 106] has inhibition at 10 µM at or above 40%?
Outgoing: criterion not met

Incoming: Dear colleague, could you confirm whether CC(=O)NCC(=O)N1CCC(Nc2nccc(-c3c(-c4ccc(F)cc4)nc4occn34)n2)CC1 [Example 211] has inhibition at 10 µM at or above 40%?
Outgoing: criterion not met

Incoming: Dear colleague, could you confirm whether COc1cccc(-c2nc3sccn3c2-c2ccnc(N[C@@H]3CCCN(S(=O)(=O)c4cccc(OC)c4)C3)n2)c1 [Example 142] has inhibition at 10 µM at or above 40%?
Outgoing: criterion met

Incoming: Dear colleague, could you confirm whether CS(=O)(=O)N1CCC(Nc2nccc(-c3c(-c4ccc(F)cc4)nc4occn34)n2)CC1 [Example 299] has inhibition at 10 µM at or above 40%?
Outgoing: criterion met

Incoming: Dear colleague, could you confirm whether COCC(=O)N1CCC(Nc2nccc(-c3c(-c4ccc(F)cc4)nc4occn34)n2)CC1 [Example 163] has inhibition at 10 µM at or above 40%?
Outgoing: criterion met

Incoming: Dear colleague, could you confirm whether O=C(C1CCCCC1)N1CCC(Nc2nccc(-c3c(-c4ccc(F)cc4)nc4occn34)n2)CC1 [Example 164] has inhibition at 10 µM at or above 40%?
Outgoing: criterion not met

Incoming: Dear colleague, could you confirm whether COc1cccc(-c2nc3sccn3c2-c2ccnc(N[C@@H]3CCCN(C[C@@H]4COC(C)(C)O4)C3)n2)c1 [Example 146] has inhibition at 10 µM at or above 40%?
Outgoing: criterion met
